PROTOCOL: antimalarial activity against Dd2 strain (AID 2302);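 note: 0% = DMSO untreated growth and 100% = chloroquine plus artemisinin killed control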
RUN CONDITIONS: P. falciparum Dd2 in RBCs, LDH growth readout, 72 h; at 2 µM; hits give high values
Reported growth inhibition by item:

{"COMPOUND": "CCN1CC=C(c2c[nH]c3ccccc23)CC1", "growth inhibition, %": 58}
{"COMPOUND": "CN1CC=C(c2c[nH]c3ccc(OCc4ccccc4)cc23)CC1", "growth inhibition, %": 97}
{"COMPOUND": "N#Cc1ccc(N(CC(=O)NCCc2ccc(F)cc2)CC2CC2)c2ccccc12", "growth inhibition, %": 23}
{"COMPOUND": "CCCCCC(C)C(C)c1cc(O)c2c(c1)O[C@@]1(C(C)C)CC(O)[C@H](C)[C@@H]2C1 (stereo partly drawn)", "growth inhibition, %": 87}
{"COMPOUND": "CN1CC=C(C=Cc2c[nH]c3ccccc23)CC1", "growth inhibition, %": 64}
{"COMPOUND": "CCCc1ccc2c(c1O)CCC(N(CCC)CCC)C2 (stereo not drawn)", "growth inhibition, %": 23}
{"COMPOUND": "COc1cccc(C(=O)C2CC2CN2CC=C(c3c[nH]c4ccc(OC)nc34)CC2)c1 (stereo not drawn)", "growth inhibition, %": 89}
{"COMPOUND": "CC(=O)C1(c2ccccc2)CCN(CCC2(c3ccc(Cl)c(Cl)c3)CN(C(=O)C3CCCCC3)CCO2)CC1 (stereo not drawn)", "growth inhibition, %": 99}
{"COMPOUND": "C[C@@H](NC(C)(C)C)[C@H](O)c1ccc(Cl)c(C(F)(F)F)c1", "growth inhibition, %": 97}
{"COMPOUND": "CC(=O)N(Cc1cccc(-c2cccc(CNCCc3ccccc3)c2)c1)C1CCN(Cc2ccccc2)CC1", "growth inhibition, %": 57}
{"COMPOUND": "COc1ccc(CC(C)NCC(O)c2cccc(Cl)c2F)cc1 (stereo not drawn)", "growth inhibition, %": 59}
{"COMPOUND": "CC(Cc1ccc(OCc2ccc(CCN(C)C)cc2)cc1)NCCc1cccc(Cl)c1 (stereo not drawn)", "growth inhibition, %": 78}
{"COMPOUND": "CC[C@H]1CN2CC[C@H]1C[C@H]2[C@H](O)c1cc(N2CCCC2)nc2ccc(OC)cc12", "growth inhibition, %": 100}
{"COMPOUND": "CC[C@H]1CN2CC[C@H]1C[C@H]2[C@H](O)c1cc(-c2ccc(C)cc2)nc2ccc(OC)cc12", "growth inhibition, %": 99}
{"COMPOUND": "C/C=C1\\CN2CC[C@H]1C[C@@H]2[C@@H](O)c1ccnc2ccc(O)cc12", "growth inhibition, %": -1}
{"COMPOUND": "Cn1nc(C(F)(F)F)cc1-c1ccc(C(=O)NC2CCC(CN3CCC(c4c[nH]c5ccccc45)CC3)CC2)s1 (stereo not drawn)", "growth inhibition, %": 97}
{"COMPOUND": "CCCCCCCc1cc(O)c2c(c1)OC(C)(C)c1ccncc1-2", "growth inhibition, %": 52}
{"COMPOUND": "CCCN(CCC)CCOC(=O)C(OCC)(c1ccccc1)c1ccccc1", "growth inhibition, %": 0}
{"COMPOUND": "NC(N)=NC(=O)Nc1ccc([N+](=O)[O-])c(Cl)c1", "growth inhibition, %": 12}
{"COMPOUND": "CN1C(=O)OC[C@@H]1Cc1ccc2[nH]cc(C3=CCN(Cc4ccccc4)CC3)c2c1", "growth inhibition, %": 66}
{"COMPOUND": "O=C(c1ccccc1)[C@H]1C[C@@H]1CN1CC=C(c2c[nH]c3ccccc23)CC1", "growth inhibition, %": 73}
{"COMPOUND": "CCOC(=O)CCCN1C(=O)CN=C(c2ccccc2)c2cc(Cl)ccc21", "growth inhibition, %": 47}
{"COMPOUND": "O=C(/C=C/c1ccsc1)NC1CCC(CN2CCC(c3c[nH]c4ccccc34)CC2)CC1 (stereo not drawn)", "growth inhibition, %": 20}
